Test system: human Factor 7 mRNA
Assay: Antisense inhibition of human Factor 7 mRNA in HepB3 cells, 50 nM antisense oligonucleotide, lipofectin
Assay type: cell-based
Details: oligonucleotides targeted to nucleobases 14707 to 14732 of SEQ ID NO: 1 (Table 11)
Method: Antisense oligonucleotides targeted to a Factor 7 nucleic acid were tested for their effects on Factor 7 mRNA in vitro. […] After a treatment period of approximately 24 hours, RNA was isolated from the cells and Factor 7 mRNA levels were measured by real-time RT-PCR, as described herein. Factor 7 mRNA levels were adjusted according to total RNA content as measured by RIBOGREEN®. […]
Strand notation (5' to 3'): a small letter for the sugar, then the base; units joined by * are phosphorothioate-linked, units joined directly phosphodiester-linked; [ ] holds rarer units or linkages, { } end groups; capitals alone tell only the bases. e = 2'-O-(2-methoxyethyl) (MOE); [5mC] = 5-methylcytosine; d = 2'-deoxy (DNA)
Threshold check on % Inhibition (human Factor 7 mRNA levels): at or above 60% gives Condition met, strictly below gives Condition not met.

Recorded results for 5 substances are shown here.
422280 (antisense e[5mC]*eA*dG*d[5mC]*d[5mC]*dT*dG*dA*dG*dG*d[5mC]*d[5mC]*dA*dG*d[5mC]*eA*eG*eA*eT*e[5mC]) [compound 422280] = Condition not met
422282 (antisense eA*eG*d[5mC]*dA*dG*d[5mC]*d[5mC]*dT*dG*dA*dG*dG*d[5mC]*d[5mC]*dA*eG*e[5mC]*eA*eG*eA) [compound 422282] = Condition not met
422202 (antisense eA*eG*e[5mC]*d[5mC]*dT*dG*dA*dG*dG*d[5mC]*d[5mC]*dA*dG*d[5mC]*dA*dG*dA*eT*e[5mC]*eA) [compound 422202] = Condition not met
422283 (antisense e[5mC]*eA*dG*d[5mC]*dA*dG*d[5mC]*d[5mC]*dT*dG*dA*dG*dG*d[5mC]*d[5mC]*eA*eG*e[5mC]*eA*eG) [compound 422283] = Condition not met
416477 (antisense e[5mC]*eA*eG*e[5mC]*e[5mC]*dT*dG*dA*dG*dG*d[5mC]*d[5mC]*dA*dG*d[5mC]*eA*eG*eA*eT*e[5mC]) [compound 416477] = Condition met

Exam item: decide whether the reported % Inhibition (human Factor 7 mRNA levels) for 422131 (antisense eA*eG*e[5mC]*e[5mC]*eT*dG*dA*dG*dG*d[5mC]*d[5mC]*dA*dG*d[5mC]*dA*eG*eA*eT*e[5mC]*eA) [compound 422131] is at least 60%.
Condition met

// inclusive: % Inhibition (human Factor 7 mRNA levels) at least 60%? input: 422132 (antisense eG*e[5mC]*eA*eG*e[5mC]*d[5mC]*dT*dG*dA*dG*dG*d[5mC]*d[5mC]*dA*dG*e[5mC]*eA*eG*eA*eT) [compound 422132]
Condition not met

Say whether 422204 (antisense eG*e[5mC]*eA*dG*d[5mC]*d[5mC]*dT*dG*dA*dG*dG*d[5mC]*d[5mC]*dA*dG*d[5mC]*dA*eG*eA*eT) [compound 422204] shows % Inhibition (human Factor 7 mRNA levels) of 60% or more.
Condition met

Textbook exercise: given the entry 422130 (antisense eG*e[5mC]*e[5mC]*eT*eG*dA*dG*dG*d[5mC]*d[5mC]*dA*dG*d[5mC]*dA*dG*eA*eT*e[5mC]*eA*e[5mC]) [compound 422130] , state whether its % Inhibition (human Factor 7 mRNA levels) is greater than or equal to 60%.
Condition met

Hello, I need to know if 422200 (antisense e[5mC]*e[5mC]*eT*dG*dA*dG*dG*d[5mC]*d[5mC]*dA*dG*d[5mC]*dA*dG*dA*dT*d[5mC]*eA*e[5mC]*eG) [compound 422200] has measured % Inhibition (human Factor 7 mRNA levels) not below 60%. Thanks!
Condition not met

Identify whether the reported % Inhibition (human Factor 7 mRNA levels) of the following substance is 60% or greater: 422201 (antisense eG*e[5mC]*e[5mC]*dT*dG*dA*dG*dG*d[5mC]*d[5mC]*dA*dG*d[5mC]*dA*dG*dA*dT*e[5mC]*eA*e[5mC]) [compound 422201]
Condition met

Confirm if % Inhibition (human Factor 7 mRNA levels) reported for the substance 422278 (antisense eG*e[5mC]*d[5mC]*dT*dG*dA*dG*dG*d[5mC]*d[5mC]*dA*dG*d[5mC]*dA*dG*eA*eT*e[5mC]*eA*e[5mC]) [compound 422278] is 60% or above.
Condition met

* * *

test system: human Factor 7 mRNA; assay: Antisense inhibition of human Factor 7 mRNA in HepB3 cells, 50 nM antisense oligonucleotide, lipofectin; format: cell-based; settings: lipofectin, 50 nM antisense oligonucleotide, approximately 24 hours, Factor 7 mRNA by real-time RT-PCR (RTS 2927), relative to untreated control
Strand notation (5' to 3'): a small letter for the sugar, then the base; units joined by * are phosphorothioate-linked, units joined directly phosphodiester-linked; [ ] holds rarer units or linkages, { } end groups; capitals alone tell only the bases. e = 2'-O-(2-methoxyethyl) (MOE); [5mC] = 5-methylcytosine; d = 2'-deoxy (DNA)
Measured % Inhibition, listed per entry.
I only need the number, in %, no unit after it.

416501 (antisense e[5mC]*eT*eG*e[5mC]*e[5mC]*d[5mC]*dT*dT*d[5mC]*d[5mC]*dA*d[5mC]*d[5mC]*dA*dA*eG*eT*eT*eT*eA) [compound 416501] = 18
416557 (antisense eT*e[5mC]*e[5mC]*e[5mC]*eA*dG*dG*d[5mC]*dA*dA*dA*dG*d[5mC]*dT*dG*e[5mC]*eT*e[5mC]*eA*eG) [compound 416557] = 56
416437 (antisense eA*eG*eG*e[5mC]*eA*d[5mC]*dA*d[5mC]*dT*dG*dG*dT*d[5mC]*d[5mC]*d[5mC]*e[5mC]*eA*eT*e[5mC]*eA) [compound 416437] = 52
416552 (antisense eT*e[5mC]*eT*eG*e[5mC]*dA*d[5mC]*dA*dG*dG*dG*dT*dA*dG*dA*e[5mC]*e[5mC]*e[5mC]*eT*e[5mC]) [compound 416552] = 46
416461 (antisense eG*eA*eA*eG*e[5mC]*dG*d[5mC]*dA*d[5mC]*dG*dA*dA*dG*dG*d[5mC]*e[5mC]*eA*eG*e[5mC]*eG) [compound 416461] = 43
416490 (antisense eA*e[5mC]*eT*e[5mC]*eA*dG*d[5mC]*dA*dA*dG*dA*dG*dT*dG*d[5mC]*eA*eG*e[5mC]*eT*eT) [compound 416490] = 33
416449 (antisense eT*eA*eG*eG*eT*dA*dT*dT*dT*dT*dT*d[5mC]*d[5mC]*dA*d[5mC]*eA*eT*eG*eG*eA) [compound 416449] = 68
416474 (antisense eT*eG*eT*e[5mC]*eT*dG*d[5mC]*d[5mC]*dT*d[5mC]*d[5mC]*dA*dG*dG*dA*e[5mC]*eA*eA*e[5mC]*e[5mC]) [compound 416474] = 40

What the record says about 416527 (antisense eG*eA*eG*e[5mC]*eT*dT*d[5mC]*d[5mC]*d[5mC]*dA*dA*dG*dT*dT*dG*eG*e[5mC]*eA*eG*eT) [compound 416527] : % Inhibition is 49

Given item 416486 (antisense eA*eT*eT*eG*eA*d[5mC]*dA*dA*dG*dG*dG*d[5mC]*dT*dG*dT*eG*eG*e[5mC]*eA*eG) [compound 416486] , the value recorded as its % Inhibition is 12

Value of measured % Inhibition for the entry 416555 (antisense eA*eA*eA*eG*eA*dT*d[5mC]*dA*dG*dG*d[5mC]*dA*dA*dA*dG*eA*eT*e[5mC]*e[5mC]*e[5mC]) [compound 416555] : 6

* * *

tested on: human Factor 7 mRNA; test: Dose-dependent antisense inhibition of human Factor 7 in HepB3 cells, lipofectin; type: cell-based; conditions: Table 3, 12.5 nM, approximately 16 hours
Strand notation (5' to 3'): a small letter for the sugar, then the base; units joined by * are phosphorothioate-linked, units joined directly phosphodiester-linked; [ ] holds rarer units or linkages, { } end groups; capitals alone tell only the bases. e = 2'-O-(2-methoxyethyl) (MOE); [5mC] = 5-methylcytosine; d = 2'-deoxy (DNA)
Cut-off 70% on percent inhibition of Factor 7, inclusive. At or above means fulfilled; below means not fulfilled.

Consider the following illustrative entries.
407935 (antisense eA*eT*eG*e[5mC]*eA*dT*dG*dG*dT*dG*dA*dT*dG*d[5mC]*dT*eT*e[5mC]*eT*eG*eA) [compound 407935] = fulfilled
407939 (antisense eT*eG*e[5mC]*eA*eG*d[5mC]*d[5mC]*d[5mC]*dG*dG*d[5mC]*dA*d[5mC]*d[5mC]*d[5mC]*eA*eG*e[5mC]*eG*eA) [compound 407939] = fulfilled

Turning now to a further substance:
Threshold query (percent inhibition of Factor 7 >= 70%) on 407594 (antisense e[5mC]*e[5mC]*eT*eG*e[5mC]*dA*dG*d[5mC]*d[5mC]*dA*dG*dG*d[5mC]*dA*dG*e[5mC]*e[5mC]*e[5mC]*eT*eG) [compound 407594]
not fulfilled
